Overview of recorded GI50 for various molecules
- Test system: SNB-19 CNS
- procedureDetails: NCI tumour cell line growth inhibition, 48 h

// known answers, use as guide
[
  {
    "molecule": "Cn1cnc([N+](=O)[O-])c1Sc1ncnc2c1ncn2C1OC(CO)C(O)C1O (stereo not drawn)",
    "reportedValue": "> 100 µM"
  },
  {
    "molecule": "CC(=O)/C(C)=N/N/C(N)=N\\S(=O)(=O)c1cc(C(=O)Nc2ccccc2)c(Cl)cc1SCc1ccccc1",
    "reportedValue": "> 100 µM"
  }
]

Okay, next one:
Task: Please give the measured GI50 for this molecule: COc1ccc2c(c1)OC13Oc4cc(OC)ccc4C=C1CCCC3=C2
Result: > 100 µM

----------
- System: HOP-92 NSCLC
- procedureDetails: NCI tumour cell line growth inhibition, 48 h; in the data active = GI50 below about 0.43 µM; inactive = the rest
Return exactly one item of active, inactive

Illustrative cases are given below, each with its answer.
[
  {
    "compound": "Cn1ccnc1C(=O)/C=C/c1ccc(C(=O)Nc2nc3ccccc3[nH]2)cc1",
    "testedSystem": "HOP-92 NSCLC",
    "category": "inactive"
  },
  {
    "compound": "CCCC[C@@H](COC(=O)N(Cc1cccs1)Cc1cccs1)NC(=O)N[C@@H](CC(=O)OC)c1ccc2c(c1)OCO2",
    "testedSystem": "HOP-92 NSCLC",
    "category": "inactive"
  },
  {
    "compound": "Oc1ccccc1-n1c(-c2ccccc2)ccc1-c1ccccc1",
    "testedSystem": "HOP-92 NSCLC",
    "category": "inactive"
  },
  {
    "compound": "CC/C=C\\CCC/C=C1/C(=O)C=C[C@@H]1C/C=C\\CCCC(=O)O",
    "testedSystem": "HOP-92 NSCLC",
    "category": "inactive"
  },
  {
    "compound": "COc1ccc(/C=C2\\COc3ccc(-c4ccccc4)cc3C2=O)cc1O",
    "testedSystem": "HOP-92 NSCLC",
    "category": "inactive"
  },
  {
    "compound": "COc1ccc2c(c1)OC13Oc4cc(OC)ccc4C=C1CCCC3=C2",
    "testedSystem": "HOP-92 NSCLC",
    "category": "inactive"
  },
  {
    "compound": "COC(=O)CCC1=C(C)c2cc3[n-]c(cc4nc(cc5[n-]c(cc1n2)c(CCC(=O)OC)c5C)C=C4C)cc3C.[Cd+2]",
    "testedSystem": "HOP-92 NSCLC",
    "category": "inactive"
  },
  {
    "compound": "CCNCCNc1cc(-c2ccc(F)cc2)c(C#N)c2nc3ccccc3n12",
    "testedSystem": "HOP-92 NSCLC",
    "category": "inactive"
  }
]

Task: What outcome does the record of this test show for C=C(C)[C@H]1CC/C(C)=C/CCC(C)C(=O)CC/C(CO)=C\[C@@H]1O (stereo partly specified) ?
Result: inactive

Task: What do you get for C#Cc1ccc(NC(=O)c2ccc(/C=C/C(=O)c3nccn3C)cc2)cc1 ?
Result: inactive

Task: What do you get for COc1ccc([C@H]2O[C@@H](CO)C[C@]2(O)c2ccc(OC)cc2)cc1 ?
Result: inactive

Task: What do you get for N#Cc1nc(-c2ccccc2)oc1S(=O)(=O)N1CCOCC1 ?
Result: inactive

Task: What do you get for C[C@@H]1CC[C@@]2(OC1)O[C@H]1C[C@H]3[C@@H]4CC=C5C[C@@H](O[C@@H]6O[C@H](CO)[C@@H](O[C@@H]7O[C@@H](CO)[C@H](O)[C@H]7O)[C@H](O)[C@H]6O[C@@H]6O[C@@H](C)[C@H](O)[C@@H](O)[C@H]6O)CC[C@]5(C)[C@H]4CC[C@]3(C)[C@H]1[C@@H]2C ?
Result: inactive

Task: What do you get for COc1ccc(/C=C(\C#N)c2cc3ccccc3n2C)cc1 ?
Result: inactive

Task: What do you get for C[Se]C(=O)CC1=C2C=C(F)C=CC2/C(=C\c2ccc(S(C)=O)cc2)C1C (stereo unspecified) ?
Result: active

Task: What do you get for COc1ccc2c3c(c(OCCCN(C)C)nc2c1)-c1ccc(Cl)cc1C3=O ?
Result: inactive
